FYI, the data here is from patent US8729074B2.

Biological target: PI3Kα (Homo sapiens (Human))
Reported IC50 by item:
Measure name: IC50 (µM)

# Query smiles, Units label, Recorded value
rows = [
    ("COc1cc(-c2cnc3ccc(Br)cn23)cnc1OC", "µM", 1.5),
    ("Cc1nc2ccc(Br)cn2c1-c1cnc(Cl)c(NS(=O)(=O)c2ccc(F)cc2)c1", "µM", 0.016),
    ("O=S(=O)(Nc1cc(-c2cnc3ccc(N4CCOCC4)cn23)cnc1Cl)c1ccc(F)cc1", "µM", 0.006),
    ("COc1cc(-c2cnc3ccc(-c4ccncc4)cn23)cnc1OC", "µM", 0.861),
    ("O=S(=O)(Nc1cc(-c2cnc3ccc(-c4cccnc4)cn23)cnc1Cl)c1ccc(F)cc1", "µM", 0.004),
    ("COc1cc(-c2cnc3ccc(N4CCOC4=O)cn23)cnc1OC", "µM", 4.67),
    ("O=S(=O)(Nc1cc(-c2cnc3ncccn23)cnc1Cl)c1ccc(F)cc1", "µM", 0.781),
]

* * *

pKi: −log10 of the molar value.
# collection of pKi values tested on PI3Kα (Homo sapiens (Human))

# Compound, pKi
rows = [
    ("CN(C)S(=O)(=O)Nc1cc(-c2cnc3cc(-c4ccncc4)ccn23)cnc1Cl [Example 21]", 7.82),
    ("O=S(=O)(Nc1cc(-c2cnc3ccc(Cl)nn23)cnc1Cl)c1ccc(F)cc1 [Example 25]", 7.66),
    ("O=S(=O)(Nc1cc(-c2cnc3ccc(-c4cccnc4)cn23)cnc1Cl)c1ccc(F)cc1 [Example 8]", 9.00),
    ("CN(C)S(=O)(=O)Nc1cc(-c2cnc3cc(-c4cccnc4)ccn23)cnc1Cl [Example 22]", 7.68),
    ("O=S(=O)(Nc1cc(-c2cnc3ncccn23)cnc1Cl)c1ccc(F)cc1 [Example 24]", 6.42),
    ("CN(C)S(=O)(=O)Nc1cc(-c2cnc3ccc(-c4ccnc(C(F)(F)F)c4)cn23)cnc1Cl [Example 19]", 9.00),
    ("COc1cc(-c2cnc3ccc(-c4ccncc4)cn23)cnc1OC [Example 12]", 6.20),
    ("O=S(=O)(Nc1cc(-c2cnc3ccc(-c4ccncc4)cn23)cnc1Cl)c1ccc(F)cc1 [Example 7]", 8.70),
]

* * *

Molecular target: PI3Kα (Homo sapiens (Human), UniProt P42336)
Sequence (P42336 whole entry): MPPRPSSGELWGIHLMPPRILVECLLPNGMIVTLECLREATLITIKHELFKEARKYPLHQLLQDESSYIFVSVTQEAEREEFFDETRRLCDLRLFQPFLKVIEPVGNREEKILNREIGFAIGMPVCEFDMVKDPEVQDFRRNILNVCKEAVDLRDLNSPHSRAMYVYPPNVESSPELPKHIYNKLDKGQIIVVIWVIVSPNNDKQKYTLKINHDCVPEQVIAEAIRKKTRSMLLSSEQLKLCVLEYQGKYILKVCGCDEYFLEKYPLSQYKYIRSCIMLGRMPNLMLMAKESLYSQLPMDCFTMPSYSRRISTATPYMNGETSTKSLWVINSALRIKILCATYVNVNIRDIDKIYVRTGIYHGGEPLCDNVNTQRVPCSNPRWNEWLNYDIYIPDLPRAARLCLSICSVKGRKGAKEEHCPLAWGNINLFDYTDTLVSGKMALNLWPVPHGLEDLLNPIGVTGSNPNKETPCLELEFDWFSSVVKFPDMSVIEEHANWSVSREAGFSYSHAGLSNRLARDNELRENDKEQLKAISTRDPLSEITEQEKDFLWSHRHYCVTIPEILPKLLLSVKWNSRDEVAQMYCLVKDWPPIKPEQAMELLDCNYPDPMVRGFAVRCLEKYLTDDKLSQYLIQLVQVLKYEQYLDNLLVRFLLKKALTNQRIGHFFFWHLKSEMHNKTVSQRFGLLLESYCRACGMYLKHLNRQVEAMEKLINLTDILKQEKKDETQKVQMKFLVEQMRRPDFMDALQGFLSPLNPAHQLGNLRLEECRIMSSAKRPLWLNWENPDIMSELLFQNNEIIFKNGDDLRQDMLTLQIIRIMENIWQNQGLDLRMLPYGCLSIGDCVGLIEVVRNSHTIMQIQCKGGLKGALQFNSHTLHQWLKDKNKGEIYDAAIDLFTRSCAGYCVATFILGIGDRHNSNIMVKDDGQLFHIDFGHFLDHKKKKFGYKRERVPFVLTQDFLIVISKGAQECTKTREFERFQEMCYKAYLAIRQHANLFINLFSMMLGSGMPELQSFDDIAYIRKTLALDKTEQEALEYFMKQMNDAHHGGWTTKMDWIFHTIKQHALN
Sequence (P27986 whole entry partner): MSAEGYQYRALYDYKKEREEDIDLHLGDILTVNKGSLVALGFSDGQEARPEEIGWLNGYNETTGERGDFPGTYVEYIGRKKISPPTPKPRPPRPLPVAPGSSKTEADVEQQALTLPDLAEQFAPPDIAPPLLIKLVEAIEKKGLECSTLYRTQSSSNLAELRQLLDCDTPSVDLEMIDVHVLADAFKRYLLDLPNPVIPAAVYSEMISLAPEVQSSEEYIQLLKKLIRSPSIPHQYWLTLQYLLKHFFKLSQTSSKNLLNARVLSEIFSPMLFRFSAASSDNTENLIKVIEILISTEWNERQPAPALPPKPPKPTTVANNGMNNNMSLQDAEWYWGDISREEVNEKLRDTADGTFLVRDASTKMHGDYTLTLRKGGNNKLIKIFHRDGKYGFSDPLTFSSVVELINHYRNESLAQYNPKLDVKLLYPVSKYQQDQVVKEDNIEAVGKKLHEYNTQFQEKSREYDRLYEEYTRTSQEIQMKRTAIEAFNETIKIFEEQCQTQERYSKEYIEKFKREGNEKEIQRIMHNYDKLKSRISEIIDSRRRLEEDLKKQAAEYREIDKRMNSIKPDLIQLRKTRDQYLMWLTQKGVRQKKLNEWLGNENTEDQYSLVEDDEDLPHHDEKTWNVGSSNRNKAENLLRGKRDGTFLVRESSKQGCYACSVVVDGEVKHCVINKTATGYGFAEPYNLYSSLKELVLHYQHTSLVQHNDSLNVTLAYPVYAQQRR
pIC50: −log10 of the molar value.
Class met: pIC50 at least 8. Class not met: pIC50 below 8.

# Query smiles, Test target, Discrete label
data = [
    ("O=S(=O)(Nc1cc(-c2cnc3ccc(-c4ccncc4)cn23)cnc1Cl)c1ccc(F)cc1", "PI3Kα (Homo sapiens (Human), UniProt P42336)", "met"),
    ("O=S(=O)(Nc1cc(-c2cnc3ccccn23)cnc1Cl)c1ccc(F)cc1", "PI3Kα (Homo sapiens (Human), UniProt P42336)", "not met"),
    ("O=S(=O)(Nc1cc(-c2cnc3ccc(Cl)nn23)cnc1Cl)c1ccc(F)cc1", "PI3Kα (Homo sapiens (Human), UniProt P42336)", "not met"),
    ("COc1cc(-c2cnc3ccccn23)cnc1OC", "PI3Kα (Homo sapiens (Human), UniProt P42336)", "not met"),
]

* * *

Molecular target: PI3Kα (Homo sapiens (Human))

# Compound, Ki
data = [
    ("O=S(=O)(Nc1cc(-c2cnc3ccc(Br)cn23)cnc1Cl)c1ccc(F)cc1 [Example 6]", "6 nM"),
    ("COc1cc(-c2cnc3ccc(N4CCOCC4)cn23)cnc1OC [Example 16]", "1080 nM"),
    ("CN(C)S(=O)(=O)Nc1cc(-c2cnc3ccc(-c4ccncc4)cn23)cnc1Cl [Example 18]", "1 nM"),
]
